Data provenance: ChEMBL document CHEMBL4190320

targetEntity: Potassium voltage-gated channel subfamily A member 4 (Rattus norvegicus)
procedureSummary: Inhibition of rat Kv1.4 expressed in Xenopus laevis oocytes at 1 uM at -90 mV holding potential by two-electrode voltage clamp assay relative to control
Type: cell-based
Calls of active or inactive are those of the source. The calls are words filed in the database; no cut-off is given here.
measuredMetric: inhibition

Completed entries (count: 5):
Cc1[nH]c(C(=O)NC/C=C/c2c[nH]c(N)n2)cc1Cl	71%
CC(C)(C)OC(=O)N1CCC(C(=O)NC/C=C/c2c[nH]c(N)n2)CC1	inactive
Nc1nc(/C=C/CNC(=O)c2cccnc2)c[nH]1	inactive
Nc1nc(/C=C/CNC(=O)C2CCNCC2)c[nH]1	inactive
Nc1ncc(/C=C/CNC(=O)c2cc(Br)c(Br)[nH]2)[nH]1 [OROIDIN]	32%

Asked: Give its inhibition value. Item: Nc1nc(CCCNC(=O)c2cc3ccccc3[nH]2)c[nH]1
Given back: inactive

Asked: Given Nc1nc(CCCNC(=O)C2Cc3ccccc3N2)c[nH]1 (configuration not stated) , state its recorded inhibition.
Given back: inactive

Asked: // lookup inhibition for Nc1nc(/C=C/CNC(=O)c2cc(Br)c[nH]2)c[nH]1
Given back: 11%

Asked: Fill in the blank: the reported inhibition of Cc1[nH]c(C(=O)NC/C=C/c2c[nH]c(N)n2)cc1Br is ____.
Given back: 46%

Asked: Given the entry Nc1nc(/C=C/CNC(=O)c2cc3ccccc3[nH]2)c[nH]1 , report its measured inhibition.
Given back: inactive
